Assay: in vivo
Settings: rat, po
reported_property: TD50

// field: TD50; key: O=C1NC(=O)C(c2ccccc2)(c2ccccc2)N1 [Phenytoin] ; value = > 3000 mg/kg

---

Assay: in vivo
Settings: mouse, ip
reported_property: TD50 (mg/kg)
The figure you give is taken to be in mg/kg; do not add the unit.

// field: TD50; key: Clc1ccc(-n2nncc2-c2cccnc2)cc1 [Compound 10] ; value = 245

---

Assay: maximal electroshock seizure (MES) pattern test in rats
Details: rat, in vivo, po, Safety ratio (TD3/ED97), rats, MES
reported_property: selectivity ratio
Field format: numeric only.

// field: selectivity ratio; key: Clc1ccc(-n2nncc2-c2cccnc2)cc1 [Compound 10] ; value = 0.07
